Target: OGDH (Rattus norvegicus, UniProt Q5XI78)
Sequence (Q5XI78 41-1023): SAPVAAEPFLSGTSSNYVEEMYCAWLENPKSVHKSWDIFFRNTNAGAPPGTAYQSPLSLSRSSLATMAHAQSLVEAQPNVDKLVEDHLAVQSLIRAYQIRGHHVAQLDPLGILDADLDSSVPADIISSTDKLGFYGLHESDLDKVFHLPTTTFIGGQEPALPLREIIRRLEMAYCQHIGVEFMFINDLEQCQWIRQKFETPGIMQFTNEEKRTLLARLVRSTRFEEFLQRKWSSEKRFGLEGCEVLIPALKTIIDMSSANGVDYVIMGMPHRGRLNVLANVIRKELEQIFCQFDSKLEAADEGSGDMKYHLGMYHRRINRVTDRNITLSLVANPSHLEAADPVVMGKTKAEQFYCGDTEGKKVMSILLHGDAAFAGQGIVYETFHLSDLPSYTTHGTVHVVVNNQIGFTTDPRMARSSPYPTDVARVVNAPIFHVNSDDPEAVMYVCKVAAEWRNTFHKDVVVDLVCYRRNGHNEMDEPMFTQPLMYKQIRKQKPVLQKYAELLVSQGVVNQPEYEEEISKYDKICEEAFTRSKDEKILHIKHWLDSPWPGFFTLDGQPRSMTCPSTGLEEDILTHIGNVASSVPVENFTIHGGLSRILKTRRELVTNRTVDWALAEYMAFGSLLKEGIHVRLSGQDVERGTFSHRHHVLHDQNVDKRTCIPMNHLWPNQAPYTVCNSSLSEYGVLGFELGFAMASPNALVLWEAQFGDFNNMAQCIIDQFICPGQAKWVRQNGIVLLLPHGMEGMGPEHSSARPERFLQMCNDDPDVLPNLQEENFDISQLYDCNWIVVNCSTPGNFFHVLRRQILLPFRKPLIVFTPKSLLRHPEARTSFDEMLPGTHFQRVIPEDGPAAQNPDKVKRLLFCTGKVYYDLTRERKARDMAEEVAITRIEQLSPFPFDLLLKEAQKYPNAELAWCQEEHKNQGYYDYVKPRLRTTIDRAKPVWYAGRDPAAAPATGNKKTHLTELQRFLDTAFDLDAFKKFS
Sequence (Q01205 69-454 partner): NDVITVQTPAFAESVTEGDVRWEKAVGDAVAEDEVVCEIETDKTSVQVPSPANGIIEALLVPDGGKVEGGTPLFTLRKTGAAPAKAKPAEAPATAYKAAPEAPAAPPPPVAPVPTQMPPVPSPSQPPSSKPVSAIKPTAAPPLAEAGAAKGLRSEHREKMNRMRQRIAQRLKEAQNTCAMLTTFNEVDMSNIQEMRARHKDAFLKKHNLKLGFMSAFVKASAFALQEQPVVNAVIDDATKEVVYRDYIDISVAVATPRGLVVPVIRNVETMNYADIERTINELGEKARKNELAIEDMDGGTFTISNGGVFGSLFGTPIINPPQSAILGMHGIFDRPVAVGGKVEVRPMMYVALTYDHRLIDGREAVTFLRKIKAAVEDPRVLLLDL
Sequence (Q6P6R2 36-509 partner): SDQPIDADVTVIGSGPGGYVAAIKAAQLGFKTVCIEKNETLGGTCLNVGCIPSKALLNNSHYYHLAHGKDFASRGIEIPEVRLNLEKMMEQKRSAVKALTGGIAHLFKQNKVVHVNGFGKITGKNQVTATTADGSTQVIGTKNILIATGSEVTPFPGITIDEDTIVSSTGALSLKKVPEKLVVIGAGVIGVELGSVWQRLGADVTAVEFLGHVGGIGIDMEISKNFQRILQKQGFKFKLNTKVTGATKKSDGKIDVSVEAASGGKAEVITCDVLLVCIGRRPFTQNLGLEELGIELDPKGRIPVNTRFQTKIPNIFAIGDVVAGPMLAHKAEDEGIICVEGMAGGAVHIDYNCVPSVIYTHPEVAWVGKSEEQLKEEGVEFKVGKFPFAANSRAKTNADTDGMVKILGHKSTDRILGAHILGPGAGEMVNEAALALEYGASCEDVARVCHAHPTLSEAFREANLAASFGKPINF
Experiment: OGDH reaction (OG saturation) catalyzed by the enzyme preparation from rat liver
Type: biochemical
Design: the tissue fractions with the complexes enriched to a degree allowing for a robust detection of the enzymatic activities, have been used; from tissue
Conditions: Ki, LB, Lineweaver-Burk
readout: Ki (µM)

[[record]]
compound = "O=C(O)CCC(=O)P(=O)(O)O [SP, succinyl phosphonate]"
measurement_unit = "µM"
reported = 4.9


----------
Target: OGDH (Rattus norvegicus, UniProt Q5XI78)
Sequence (Q5XI78 41-1023): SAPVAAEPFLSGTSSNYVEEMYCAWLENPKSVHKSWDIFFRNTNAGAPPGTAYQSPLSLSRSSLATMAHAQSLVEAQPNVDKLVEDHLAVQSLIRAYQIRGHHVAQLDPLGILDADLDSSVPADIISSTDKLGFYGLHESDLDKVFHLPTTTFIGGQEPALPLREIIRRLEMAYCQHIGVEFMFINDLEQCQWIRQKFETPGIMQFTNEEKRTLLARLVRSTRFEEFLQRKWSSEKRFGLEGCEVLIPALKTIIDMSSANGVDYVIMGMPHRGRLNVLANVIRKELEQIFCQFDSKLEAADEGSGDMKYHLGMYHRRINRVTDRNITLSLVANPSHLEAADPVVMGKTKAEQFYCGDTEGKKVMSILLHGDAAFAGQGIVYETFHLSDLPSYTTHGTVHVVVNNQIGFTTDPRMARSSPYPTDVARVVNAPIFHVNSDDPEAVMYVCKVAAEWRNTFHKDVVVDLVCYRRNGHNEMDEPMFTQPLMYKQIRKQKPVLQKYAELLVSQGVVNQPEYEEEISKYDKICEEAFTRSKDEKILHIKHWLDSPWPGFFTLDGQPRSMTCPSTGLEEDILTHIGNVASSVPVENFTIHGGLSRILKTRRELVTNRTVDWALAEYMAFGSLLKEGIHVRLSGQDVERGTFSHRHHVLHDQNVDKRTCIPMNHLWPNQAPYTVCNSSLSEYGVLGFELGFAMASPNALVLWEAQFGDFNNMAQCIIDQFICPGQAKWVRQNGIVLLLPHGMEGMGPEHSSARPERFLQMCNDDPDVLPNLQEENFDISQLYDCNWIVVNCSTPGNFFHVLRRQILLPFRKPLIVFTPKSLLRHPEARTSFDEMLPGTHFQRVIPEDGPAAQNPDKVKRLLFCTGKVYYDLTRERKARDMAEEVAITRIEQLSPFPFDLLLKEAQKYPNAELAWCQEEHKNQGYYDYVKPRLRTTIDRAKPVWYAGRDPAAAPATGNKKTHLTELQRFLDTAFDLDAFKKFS
Sequence (Q01205 69-454 partner): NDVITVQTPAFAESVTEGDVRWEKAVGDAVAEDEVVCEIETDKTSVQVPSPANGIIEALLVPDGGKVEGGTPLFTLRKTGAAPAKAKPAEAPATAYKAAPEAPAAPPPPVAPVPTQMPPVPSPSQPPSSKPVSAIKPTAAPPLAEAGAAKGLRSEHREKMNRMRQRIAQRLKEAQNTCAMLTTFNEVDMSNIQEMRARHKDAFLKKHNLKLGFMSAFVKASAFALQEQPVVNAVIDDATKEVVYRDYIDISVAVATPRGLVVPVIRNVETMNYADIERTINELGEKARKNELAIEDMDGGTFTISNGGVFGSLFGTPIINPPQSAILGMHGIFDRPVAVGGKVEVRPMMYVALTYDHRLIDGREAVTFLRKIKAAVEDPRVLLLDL
Sequence (Q6P6R2 36-509 partner): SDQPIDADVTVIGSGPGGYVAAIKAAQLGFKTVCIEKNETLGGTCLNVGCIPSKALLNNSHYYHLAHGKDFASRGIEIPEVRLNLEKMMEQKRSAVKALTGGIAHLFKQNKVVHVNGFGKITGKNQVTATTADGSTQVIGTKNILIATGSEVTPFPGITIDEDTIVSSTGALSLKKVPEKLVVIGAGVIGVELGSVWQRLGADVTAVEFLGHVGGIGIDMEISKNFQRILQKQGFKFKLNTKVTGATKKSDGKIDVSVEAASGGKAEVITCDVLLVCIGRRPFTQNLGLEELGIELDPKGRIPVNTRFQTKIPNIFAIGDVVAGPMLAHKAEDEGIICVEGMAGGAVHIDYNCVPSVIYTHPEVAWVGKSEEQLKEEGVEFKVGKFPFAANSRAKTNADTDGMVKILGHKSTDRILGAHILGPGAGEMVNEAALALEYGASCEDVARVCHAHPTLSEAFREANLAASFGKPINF
Assay: OGDH reaction (OG saturation) catalyzed by the enzyme preparation from rat heart
Format: biochemical
Set-up: the tissue fractions with the complexes enriched to a degree allowing for a robust detection of the enzymatic activities, have been used; from tissue; host or cells: rat heart
Details: Ki, LB, OGDH reaction, heart; Lineweaver-Burk
readout: Ki (µM)

[[record]]
compound = "O=C(O)CCC(=O)P(=O)(O)O [SP, succinyl phosphonate]"
reported = 13


----------
Molecular target: OGDH (Rattus norvegicus)
Experiment: OGDH reaction (OG saturation) catalyzed by the enzyme preparation from rat liver
Type: biochemical
Set-up: the tissue fractions with the complexes enriched to a degree allowing for a robust detection of the enzymatic activities, have been used; from tissue
Conditions: Ki, Average, average of MM, LB, EH
readout: Ki (µM)

[[record]]
compound = "O=C(O)CCC(=O)P(=O)(O)O [SP, succinyl phosphonate]"
test_target = "OGDH (Rattus norvegicus)"
readout = "Ki"
measurement_unit = "µM"
reported = 7.4


// data source = paper PMC7835950
